organism: Homo sapiens; test: Effect on human G-quadruplex DNA stability by FRET assay
Label Criterion met when ΔTm is strictly below 30 °C; otherwise label Criterion not met.

Solved entries:
CN(C)c1ccc(Nc2c3ccc(NC(=O)CCN4CCCCC4)cc3nc3cc(NC(=O)CCN4CCCCC4)ccc23)cc1 :: Criterion met
O=C(CCN1CCCCC1)Nc1ccc2c(NCc3ccc(F)c(F)c3)c3ccc(NC(=O)CCN4CCCCC4)cc3nc2c1 :: Criterion met
Cc1cccc(CNc2c3ccc(NC(=O)CCN4CCCCC4)cc3nc3cc(NC(=O)CCN4CCCCC4)ccc23)c1 :: Criterion not met
COc1cc(CNc2c3ccc(NC(=O)CCN4CCCC4)cc3nc3cc(NC(=O)CCN4CCCC4)ccc23)cc(OC)c1 :: Criterion not met
Cc1cccc(CNc2c3ccc(NC(=O)CCN4CCC(C)CC4)cc3nc3cc(NC(=O)CCN4CCC(C)CC4)ccc23)c1 :: Criterion met
O=C(CCN1CCCC1)Nc1ccc2c(NCc3cc(C(F)(F)F)cc(C(F)(F)F)c3)c3ccc(NC(=O)CCN4CCCC4)cc3nc2c1 :: Criterion met

Q: Is it true that ΔTm reported for `CN(C)c1ccc(Nc2c3ccc(NC(=O)CCN4CCCC4)cc3nc3cc(NC(=O)CCN4CCCC4)ccc23)cc1` is less than 30 °C?
Result: Criterion met

---

species on record: Homo sapiens; test: Effect on human G-quadruplex DNA stability by FRET assay
Please respond with reported ΔTm for every item in the list.

Cc1cccc(CNc2c3ccc(NC(=O)CCN4CCCC4)cc3nc3cc(NC(=O)CCN4CCCC4)ccc23)c1 :: 29.5 °C
O=C(CCN1CCCC1)Nc1ccc2c(NCc3ccc(F)c(F)c3)c3ccc(NC(=O)CCN4CCCC4)cc3nc2c1 :: 29.5 °C

Look up ΔTm for the entries below, preserving their order.
1. O=C(CCN1CCCC1)Nc1ccc2c(NCc3cc(F)cc(C(F)(F)F)c3)c3ccc(NC(=O)CCN4CCCC4)cc3nc2c1
2. COc1cc(CNc2c3ccc(NC(=O)CCN4CCCCC4)cc3nc3cc(NC(=O)CCN4CCCCC4)ccc23)cc(OC)c1

Result:
1. 30.5 °C
2. 30 °C

The reported numbers originate from ChEMBL document CHEMBL1139141.
